Hello, the source for this data is patent US20170088632A1, in case you need it.

The reader will find reported C3 convertase assay using 1% human serum, IC50 (second experiment) values listed item by item below.
Molecular target: human MASP-2 (human, UniProt O00187 16-686)
Sequence (O00187 16-686): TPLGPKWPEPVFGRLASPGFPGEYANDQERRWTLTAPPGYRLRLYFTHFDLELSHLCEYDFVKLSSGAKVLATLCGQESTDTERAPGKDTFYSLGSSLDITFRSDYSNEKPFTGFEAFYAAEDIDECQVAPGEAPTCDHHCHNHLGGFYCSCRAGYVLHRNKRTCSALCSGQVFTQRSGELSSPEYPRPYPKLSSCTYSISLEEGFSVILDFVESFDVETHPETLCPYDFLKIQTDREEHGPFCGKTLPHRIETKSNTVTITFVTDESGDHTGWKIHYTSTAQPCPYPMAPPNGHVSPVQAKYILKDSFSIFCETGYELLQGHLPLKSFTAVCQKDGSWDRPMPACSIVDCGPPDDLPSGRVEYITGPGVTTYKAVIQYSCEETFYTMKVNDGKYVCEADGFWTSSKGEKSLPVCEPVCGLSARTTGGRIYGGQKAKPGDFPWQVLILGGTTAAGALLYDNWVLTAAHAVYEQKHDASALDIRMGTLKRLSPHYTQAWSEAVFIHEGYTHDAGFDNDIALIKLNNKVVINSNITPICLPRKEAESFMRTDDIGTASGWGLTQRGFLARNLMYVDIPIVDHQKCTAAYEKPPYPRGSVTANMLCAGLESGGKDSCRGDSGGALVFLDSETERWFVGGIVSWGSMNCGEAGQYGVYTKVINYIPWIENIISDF
Assay: cell-based or functional assay
Field note: include the unit after the figure.

Take a look at these entries with their results.
[[record]]
binder = "17N16 mother clone, wild type IgG4 format (antibody, V domains shown) VH: QVQLQQSGPGLVKPSQTLSLTCAISGDSVSSTSAAWNWIRQSPSRGLEWLGRTYYRSKWYNDYAVSVKSRITINPDTSKNQFSLQLNSVTPEDTAVYYCARDPFGVPFDIWGQGTMVTVSS VL: SYVLTQPPSVSVAPGQTARITCGGNNIGSKNVHWYQQKPGQAPVLVVYDDSDRPSGIPERFSGSNSGNTATLTVSRVEAGDEADYYCQVWDTTTDHVVFGGGTKLTVL"
test_value = "3.09 nM"

[[record]]
binder = "scFv mother clone 18L16 (scFv) scFv: QVTLKESGPVLVKPTETLTLTCTVSGFSLSNARMGVSWIRQPPGKALEWLAHIFSNDEKSYSTSLKSRLTISKDTSKSQVVLTMTNMDPVDTATYYCARMAILTAGGMDVWGQGTTVTVSSKLSGSASAPKLEEGEFSEARVSYVLTQPPSVSASPGQTASITCSGDKLGDKYVSWYQQKPGRSPVLVIYRDTKRPSGIPERFSGSNYGNTATLTISGTQAVDEADYYCQAWDSGSGVFGGGTKVTVLAAAGSEQKLISEEDLNSHHHHHH"
test_value = "193 nM"

[[record]]
binder = "18L16 mother clone, wild type IgG4 format (antibody, V domains shown) VH: QVTLKESGPVLVKPTETLTLTCTVSGFSLSNARMGVSWIRQPPGKALEWLAHIFSNDEKSYSTSLKSRLTISKDTSKSQVVLTMTNMDPVDTATYYCARMAILTAGGMDVWGQGTTVTVS VL: LTQPPSVSASPGQTASITCSGDKLGDKYVSWYQQKPGRSPVLVIYRDTKRPSGIPERFSGSNYGNTATLTISGTQAVDEADYYCQAWDSGSGVFGGGTKVTVLA"
test_value = "22 nM"

[[record]]
binder = "scFv mother clone 17D20 (scFv, also called 17D20 (17P10); 17D20mc) scFv: QVTLKESGPVLVKPTETLTLTCTVSGFSLSRGKMGVSWIRQPPGKALEWLAHIFSSDEKSYRTSLKSRLTISKDTSKNQVVLTMTNMDPVDTATYYCARIRAGGIDYWGQGTLVTVSSKLSGSASAPKLEEGEFSEARVQPVLTQPPSVSVSPGQTASITCSGDKLGDKFAYWYQQKPGHSPVLVIYQDNKRPSGIPGRFSGSNSGNTATLTISGTQAMDEADYYCQAWDSSTAVFGTGTKVTVLAAAGSEQKLISEEDLNSHHHHHH"
test_value = "151 nM"

[[record]]
binder = "scFv mother clone 17N16 (scFv, also called 17N16mc; 17N16m) scFv: QVQLQQSGPGLVKPSQTLSLTCAISGDSVSSTSAAWNWIRQSPSRGLEWLGRTYYRSKWYNDYAVSVKSRITINPDTSKNQFSLQLNSVTPEDTAVYYCARDPFGVPFDIWGQGTMVTVSSKLSGSASAPKLEEGEFSEARVSYVLTQPPSVSVAPGQTARITCGGNNIGSKNVHWYQQKPGQAPVLVVYDDSDRPSGIPERFSGSNSGNTATLTVSRVEAGDEADYYCQVWDTTTDHVVFGGGTKLTVLAAAGSEQKLISEEDLNSHHHHHH"
test_value = "77.6 nM"


Q. Given 17D20 mother clone, wild type IgG4 format (antibody, V domains shown) VH: QVTLKESGPVLVKPTETLTLTCTVSGFSLSRGKMGVSWIRQPPGKALEWLAHIFSSDEKSYRTSLKSRLTISKDTSKNQVVLTMTNMDPVDTATYYCARIRAGGIDYWGQGTLVTVSS VL: QPVLTQPPSVSVSPGQTASITCSGDKLGDKFAYWYQQKPGHSPVLVIYQDNKRPSGIPGRFSGSNSGNTATLTISGTQAMDEADYYCQAWDSSTAVFGTGTKVTVLA , state its recorded C3 convertase assay using 1% human serum, IC50 (second experiment).
A. 10.3 nM

Q. Given 17D20 mother clone, F(ab′)2 format (Fab, V domains shown, also called 17D20 F(ab′)2) VH: QVTLKESGPVLVKPTETLTLTCTVSGFSLSRGKMGVSWIRQPPGKALEWLAHIFSSDEKSYRTSLKSRLTISKDTSKNQVVLTMTNMDPVDTATYYCARIRAGGIDYWGQGTLVTVSS VL: QPVLTQPPSVSVSPGQTASITCSGDKLGDKFAYWYQQKPGHSPVLVIYQDNKRPSGIPGRFSGSNSGNTATLTISGTQAMDEADYYCQAWDSSTAVFGTGTKVTVLA , state its recorded C3 convertase assay using 1% human serum, IC50 (second experiment).
A. 13.5 nM
